Source of measurements: PubChem BioAssay AID1159580

test: chemical genetic growth profiling, strain panel (AID 1159580);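 also: tested at 20 µM; growth read once vehicle control cultures reached saturation at 30 °C; 1 = growth at the plate median or of vehicle wells; lower values mean less growth of the strain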; conditions: S. cerevisiae deletion strains, growth OD, locus YOR070C, strain gyp1, active compounds read low
Out of some 5,500 compounds screened, about 2,000 (36%) were called active. Roughly 18% stayed inconclusive and do not appear here. The list shows a part of the results.

[
  {
    "molecule": "O=C(/C=C/C(=O)Oc1ccccc1C(=O)O)Oc1ccccc1C(=O)O",
    "normalized growth": 0.978
  },
  {
    "molecule": "CC(C(=O)O)c1ccc(N2Cc3ccccc3C2=O)cc1 (stereo not given)",
    "normalized growth": 0.982
  },
  {
    "molecule": "Cc1c(N(C)CS(=O)(=O)O)c(=O)n(-c2ccccc2)n1C",
    "normalized growth": 1.01
  },
  {
    "molecule": "C[N+]1(C)C2CC[C@H]1CC(OC(=O)C(O)c1ccccc1)C2 (stereo not given in full)",
    "normalized growth": 0.999
  },
  {
    "molecule": "C[N+]1(C)CCc2cc3c(cc2[C@H]1C1OC(=O)c2c1ccc1c2OCO1)OCO3 (stereo not given in full)",
    "normalized growth": 1.02
  },
  {
    "molecule": "CC(=O)Oc1ccc2c(c1)CCC1C2CCC2(C)C1CC(OC(C)=O)C2OC(C)=O (stereo not given)",
    "normalized growth": 0.995
  },
  {
    "molecule": "CCOC(=O)C1=C(C)NC(C)=C(C(=O)OC)C1c1cccc([N+](=O)[O-])c1 (stereo not given)",
    "normalized growth": 1.01
  },
  {
    "molecule": "COP(=S)(OC)SCn1nnc2ccccc2c1=O",
    "normalized growth": 0.986
  },
  {
    "molecule": "Cn1c(=O)[nH]c(=O)c2[nH]cnc21",
    "normalized growth": 0.998
  },
  {
    "molecule": "CC1=C(C(=O)O)N2C(=O)[C@@H](NC(=O)[C@H](N)C3=CCC=CC3)C2SC1 (stereo not given in full)",
    "normalized growth": 1.02
  },
  {
    "molecule": "CCCc1nc(C(C)(C)O)c(C(=O)OCc2oc(=O)oc2C)n1Cc1ccc(-c2ccccc2-c2nn[nH]n2)cc1",
    "normalized growth": 0.992
  },
  {
    "molecule": "C[C@]12CCC3c4ccc(O)cc4CCC3C1CC[C@@H]2OC(=O)CCC1CCCC1 (stereo not given in full)",
    "normalized growth": 1.02
  },
  {
    "molecule": "CC(=O)O[C@@H]1CC2C(C)(C)[C@H](O)C[C@H](O)[C@]2(C)C2CC[C@@]3(C)C(=CC(=O)O[C@H]3c3ccoc3)[C@@]21C (stereo not given in full)",
    "normalized growth": 0.989
  },
  {
    "molecule": "CC(=O)Oc1ccc2c(c1)CCC1C2CC[C@@]2(C)C1CC[C@@H]2OC(C)=O (stereo not given in full)",
    "normalized growth": 1.01
  },
  {
    "molecule": "O=C(O)c1cccc(O)c1O",
    "normalized growth": 1.02
  },
  {
    "molecule": "CC(=O)O[C@H]1CC2CCC3C(CC[C@@]4(C)C3C[C@H]([N+]3(C)CCCCC3)[C@@H]4OC(C)=O)[C@@]2(C)C[C@@H]1[N+]1(C)CCCCC1 (stereo not given in full)",
    "normalized growth": 1.02
  },
  {
    "molecule": "CNC(=O)CSP(=S)(OC)OC",
    "normalized growth": 1.02
  },
  {
    "molecule": "CCCCC(=O)O[C@H]1CCC2C3CCc4cc(O)ccc4C3CC[C@@]21C (stereo not given in full)",
    "normalized growth": 1.02
  },
  {
    "molecule": "CC(=O)OC1CCC2C3CCc4cc(O)ccc4C3CCC12C (stereo not given)",
    "normalized growth": 0.989
  },
  {
    "molecule": "NCCS",
    "normalized growth": 0.982
  }
]

---

assay: chemical genetic growth profiling, strain panel (AID 1159580);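 also: tested at 20 µM; growth read once vehicle control cultures reached saturation at 30 °C; 1 = growth at the plate median or of vehicle wells; lower values mean less growth of the strain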; details: S. cerevisiae deletion strains, growth OD, locus YJL168C, strain set2, active compounds read low
The campaign covered roughly 5,500 compounds. About 2,000 (36%) were called active. Not shown: some 18% with an inconclusive outcome. The list shows a part of the results.
outcomeMeasure: normalized growth

[
  {
    "compound": "CC(=O)Oc1ccc2c(c1)CCC1C2CC[C@@]2(C)C1CC[C@@H]2OC(C)=O (stereo not given in full)",
    "assayResult": 0.963
  },
  {
    "compound": "CCC(=O)O[C@H]1CCC2C3CCc4cc(O)ccc4C3CC[C@@]21C (stereo not given in full)",
    "assayResult": 1
  },
  {
    "compound": "CC(=O)OC1CCC2C3CCc4cc(O)ccc4C3CCC12C (stereo not given)",
    "assayResult": 1.01
  },
  {
    "compound": "COc1ccc(Cc2nccc3cc(OC)c(OC)cc23)cc1OC",
    "assayResult": 0.995
  },
  {
    "compound": "CCCCC(=O)N(Cc1ccc(-c2ccccc2-c2nn[nH]n2)cc1)[C@H](C(=O)O)C(C)C",
    "assayResult": 0.984
  }
]

---

assay: chemical genetic growth profiling, strain panel (AID 1159580);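 also: tested at 20 µM; growth read once vehicle control cultures reached saturation at 30 °C; 1 = growth at the plate median or of vehicle wells; lower values mean less growth of the strain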; conditions: S. cerevisiae deletion strains, growth OD, locus YLR085C, strain ARP6
The whole screen tested about 5,500 compounds, of which about 2,000 (36%) were called active. About 18% were inconclusive and are not listed. Cut-off read from the data, not from the text of the source: active = normalized growth mostly below about 0.91 (no sharp cut-off); inconclusive = no clear call, values can overlap the other calls; inactive = mostly above about 0.92. Some of the results follow.
Labels: YES for active, NO for inactive

[
  {
    "compound": "c1ccc2c(c1)-c1cccc3cccc-2c13",
    "categoryLabel": "YES"
  },
  {
    "compound": "Cc1oc(-c2ccccc2)cc1C(=O)N1CCN(c2ccc(C(F)(F)F)cn2)CC1",
    "categoryLabel": "YES"
  },
  {
    "compound": "Cc1cc(N=CNO)c2ccccc2n1",
    "categoryLabel": "NO"
  },
  {
    "compound": "N#C/C(=N/Nc1ccc(C(F)(F)F)cc1)C(=O)C1CC1",
    "categoryLabel": "YES"
  },
  {
    "compound": "NNC(=S)Nc1ccc(C(F)(F)F)cc1",
    "categoryLabel": "YES"
  },
  {
    "compound": "Cc1c(-n2cccc2)cc2c(c1[N+](=O)[O-])C(C)(C)CC2(C)C",
    "categoryLabel": "NO"
  },
  {
    "compound": "Cc1ccc(C(=O)NNC(=O)c2ccncc2)c(C)c1",
    "categoryLabel": "NO"
  },
  {
    "compound": "Cc1cccc(NCN2C(=O)CCC2=O)n1",
    "categoryLabel": "NO"
  },
  {
    "compound": "CCSC(SCC)[C@H](O)[C@@H](O)[C@H](O)CO",
    "categoryLabel": "NO"
  },
  {
    "compound": "COc1ccc(-c2c(C(=O)O)sc(SC)c2C#N)cc1",
    "categoryLabel": "NO"
  },
  {
    "compound": "S=c1nc(-c2ccccc2)[nH][nH]1",
    "categoryLabel": "NO"
  },
  {
    "compound": "COc1ccccc1N=C1SCC(=O)N1Cc1ccco1",
    "categoryLabel": "NO"
  },
  {
    "compound": "CC(O)CNc1ccc(C(F)(F)F)cc1[N+](=O)[O-] (centres undefined)",
    "categoryLabel": "NO"
  },
  {
    "compound": "N#CC(C#N)=CNc1cc(C(F)(F)F)ccc1N1CCCCC1",
    "categoryLabel": "NO"
  },
  {
    "compound": "COc1ccc(-n2c(SCc3ccc(Br)cc3)nnc2-c2ccco2)cc1",
    "categoryLabel": "NO"
  },
  {
    "compound": "O=C1CCC(=O)N1CNc1ccccc1OC(F)(F)F",
    "categoryLabel": "NO"
  },
  {
    "compound": "CCOC(=O)c1csc(N/N=C2/CCCc3ccccc32)n1",
    "categoryLabel": "YES"
  },
  {
    "compound": "CCOC(=O)CC1=Nn2c(nnc2-c2cc(Cl)cc(Cl)c2)SC1",
    "categoryLabel": "NO"
  },
  {
    "compound": "O=C(O)C12CC3CC(CC(Br)(C3)C1)C2",
    "categoryLabel": "NO"
  },
  {
    "compound": "O=C(NC(=S)Nc1ccc(Cl)cc1)c1ccc([N+](=O)[O-])o1",
    "categoryLabel": "NO"
  },
  {
    "compound": "COc1ccc(/C=N\\NC(=O)CC#N)cc1OC",
    "categoryLabel": "NO"
  },
  {
    "compound": "COc1cc(Cl)c(Cl)cc1Cl",
    "categoryLabel": "NO"
  },
  {
    "compound": "COc1ccc(/C(C)=N\\NC2=NCCCN2)cc1",
    "categoryLabel": "NO"
  },
  {
    "compound": "FC(F)(F)c1cc(NC2=NCCN=C(Nc3cc(C(F)(F)F)cc(C(F)(F)F)c3)SS2)cc(C(F)(F)F)c1",
    "categoryLabel": "NO"
  },
  {
    "compound": "CC(=O)/C(=C\\N(C)C)Sc1ccc(Cl)cc1",
    "categoryLabel": "NO"
  },
  {
    "compound": "CC(C)(C)c1ccc(C(=O)N/N=C\\c2cc(Cl)cc(Cl)c2O)cc1",
    "categoryLabel": "YES"
  },
  {
    "compound": "O=[N+]([O-])c1ccc(C2N(Cc3ccccc3)CCC3CCCCN32)cc1 (centres undefined)",
    "categoryLabel": "NO"
  },
  {
    "compound": "CC(=O)/C(=C\\N(C)C)Sc1nnc(C(F)(F)F)n1C",
    "categoryLabel": "NO"
  },
  {
    "compound": "COc1ccccc1N1CCN(S(=O)(=O)c2ccc(C(F)(F)F)cc2)CC1",
    "categoryLabel": "NO"
  },
  {
    "compound": "NNC(=S)Nc1cc(C(F)(F)F)ccc1Cl",
    "categoryLabel": "YES"
  },
  {
    "compound": "NC(=S)Nc1cc(Cl)ccc1Cl",
    "categoryLabel": "NO"
  },
  {
    "compound": "COC(=O)c1csc2c(C(F)(F)F)cc(N3CCN(S(=O)(=O)c4ccc(C)cc4)CC3)nc12",
    "categoryLabel": "NO"
  },
  {
    "compound": "O=C(NC(c1ccccc1)C(N=Cc1ccccc1)c1ccccc1)c1ccccc1 (centres undefined)",
    "categoryLabel": "NO"
  },
  {
    "compound": "COC(=O)c1c(OC)ccc(N=CNO)c1OC",
    "categoryLabel": "NO"
  },
  {
    "compound": "O=S(=O)(c1ccc(Cl)c(Cl)c1)N1CCN(c2ccc(C(F)(F)F)cn2)CC1",
    "categoryLabel": "YES"
  },
  {
    "compound": "CC(=O)CSc1nsc(SCC(C)=O)c1C#N",
    "categoryLabel": "NO"
  },
  {
    "compound": "CCOC(=O)c1c(Nc2ccccc2)sc([N+](=O)[O-])c1N",
    "categoryLabel": "YES"
  },
  {
    "compound": "CCCCCc1ccc(S(=O)(=O)Nc2cccnc2Oc2ccc(Cl)cc2)cc1",
    "categoryLabel": "NO"
  },
  {
    "compound": "CSc1sc(-c2ccn[nH]2)c(-c2ccccc2)c1C#N",
    "categoryLabel": "YES"
  },
  {
    "compound": "Cc1ccc(S(=O)(=O)Oc2ccc(CC#N)cc2)cc1",
    "categoryLabel": "NO"
  },
  {
    "compound": "N#C/C(=C\\Nc1ccc2c(c1)OCCO2)S(=O)(=O)c1ccc(C(F)(F)F)cn1",
    "categoryLabel": "YES"
  },
  {
    "compound": "COc1cc(NC(=O)Nc2ccc(OC(F)(F)F)cc2)cc(C(F)(F)F)c1",
    "categoryLabel": "NO"
  },
  {
    "compound": "Cc1cccc(N2C(=O)C3C4C=CC(C4)C3C2=O)n1 (centres undefined)",
    "categoryLabel": "NO"
  },
  {
    "compound": "O=C(CSc1nnc(-c2ccco2)n1-c1ccc2c(c1)OCCO2)c1cccc(F)c1",
    "categoryLabel": "NO"
  },
  {
    "compound": "CC(C)(C)c1cc(C(C)(C)C)n(-c2ccc([N+](=O)[O-])cc2)n1",
    "categoryLabel": "NO"
  },
  {
    "compound": "COc1cccc(NC(=S)NCc2ccco2)c1",
    "categoryLabel": "NO"
  },
  {
    "compound": "CC(NC(=S)Nc1ccc(Oc2ccc(Cl)cc2)cc1)c1ccccc1 (centres undefined)",
    "categoryLabel": "NO"
  },
  {
    "compound": "CCN(C(=S)Nc1ccc(OC)cc1)c1ccccc1",
    "categoryLabel": "NO"
  },
  {
    "compound": "CCn1cc([N+](=O)[O-])nc1C",
    "categoryLabel": "NO"
  }
]
